B1: Azoarcus group I ribozyme (parent)
chain: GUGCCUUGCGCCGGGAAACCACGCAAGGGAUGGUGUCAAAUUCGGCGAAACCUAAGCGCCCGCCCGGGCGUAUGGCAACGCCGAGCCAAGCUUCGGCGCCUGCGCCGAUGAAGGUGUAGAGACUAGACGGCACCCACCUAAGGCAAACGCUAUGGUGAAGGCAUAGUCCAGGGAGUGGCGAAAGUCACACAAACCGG

Variants of: B1
EXPERIMENTAL_DETAILS: reverse-splicing fitness (ratio to wild type); higher = more active; in vitro selection; Mg2+ level not given
Quick rule: reverse-splicing fitness of at least 0.01 means Condition met, below that means Condition not met.

Reference set (10 entries):
{"MUTANT_LABEL": "C82G A111G C150G U176A", "CAT": "Condition met"}
{"MUTANT_LABEL": "C82G A111U A145G C150A", "CAT": "Condition met"}
{"MUTANT_LABEL": "C82U A111U A120U A145G C150G U176A", "CAT": "Condition not met"}
{"MUTANT_LABEL": "A111C A120U A145C C150A C169U", "CAT": "Condition not met"}
{"MUTANT_LABEL": "C82U A111C A120C U176C", "CAT": "Condition met"}
{"MUTANT_LABEL": "C82U A111C A120U C150A C169G", "CAT": "Condition not met"}
{"MUTANT_LABEL": "A145U C150A C169G U176A", "CAT": "Condition met"}
{"MUTANT_LABEL": "A111G A120G A145G C169U U176A", "CAT": "Condition met"}
{"MUTANT_LABEL": "A111C A145C C169A", "CAT": "Condition met"}
{"MUTANT_LABEL": "A111G A145G C150U C169G U176G", "CAT": "Condition not met"}

Q: Dear colleague, could you confirm whether C82G A111C A120G A145G C150U C169A has reverse-splicing fitness at or above 0.01?
A: Condition met

Q: Dear colleague, could you confirm whether C82G A111G A120G A145C C150U C169G U176G has reverse-splicing fitness at or above 0.01?
A: Condition not met

Q: Dear colleague, could you confirm whether C82A A111U A145U C150U C169A U176G has reverse-splicing fitness at or above 0.01?
A: Condition not met
